Every entry's value here was drawn from paper PMC6225228.

Tested on: Staphylococcus aureus H 5996/08 methicillin resistant
Assay: microbe, parasite or virus in culture
Format: cell-based
Details: 24 h
Reported values of MIC MRSA for individual entries

Past entries and their recorded results:
CC(=O)Oc1cccc(C(=O)Nc2cnc(Cl)cn2)c1 : >125 µM
O=C(Nc1cnc(Cl)cn1)c1cccc(O)c1 : >500 µM
NC[C@@H]1O[C@H](O[C@H]2[C@@H](O)[C@H](O[C@@H]3[C@@H](O)[C@H](N)C[C@H](N)[C@H]3O[C@H]3O[C@H](CN)[C@@H](O)[C@H](O)[C@H]3N)O[C@@H]2CO)[C@H](N)[C@@H](O)[C@@H]1O [Neom, neomycin, reference compound] : 0.98 µM
O=C(Nc1cnc(Cl)cn1)c1ccccc1Cl : >500 µM
O=C(Nc1cnccn1)c1cccc(C(F)(F)F)c1 : >125 µM
CC(=O)Oc1ccc(C(=O)Nc2cnc(Cl)cn2)cc1 : >125 µM

Input: For Staphylococcus aureus H 5996/08 methicillin resistant, provide MIC MRSA of `O=C(Nc1cnc(Cl)cn1)c1ccccc1O` please.
Output: 62.50 µM

Input: For Staphylococcus aureus H 5996/08 methicillin resistant, provide MIC MRSA of `O=C(Nc1cnc(Cl)cn1)c1ccc(O)cc1` please.
Output: >500 µM

Input: For Staphylococcus aureus H 5996/08 methicillin resistant, provide MIC MRSA of `COc1cccc(C(=O)Nc2cnc(Cl)cn2)c1` please.
Output: >500 µM
